test: Plasma pharmacokinetics over 2 h after oral ibogaine in wild-type, Oatp1a/1b-/-, Oatp1a/1b-/-;1B1tg and Oatp1a/1b-/-;1B3tg mice; assay type: in vivo; conditions: female, Oatp1a/1b-/-, mouse, plasma, po, 10 mg/kg; read-out: AUC0-2h
property name: AUC(0-t) (ng·h/mL)
State just the number; it will be interpreted in ng·h/mL.

molecule="CCC1CC2CC3c4[nH]c5ccc(OC6OC(C(=O)O)C(O)C(O)C6O)cc5c4CCN(C2)C13 (centres unmarked) [Noribogaine glucuronide, noribogaine glucuronide]" numeric_result=244

Query: Report AUC(0-t) for CCC1CC2CC3c4[nH]c5ccc(O)cc5c4CCN(C2)C13 (centres unmarked) [Noribogaine, 12-hydroxyibogamine] please.
Reply: 458

* * *

test: Plasma pharmacokinetics over 2 h after oral ibogaine in wild-type, Oatp1a/1b-/-, Oatp1a/1b-/-;1B1tg and Oatp1a/1b-/-;1B3tg mice; type: in vivo; details: female, Oatp1a/1b-/-;1B3tg, mouse, plasma, po, 10 mg/kg; read-out: AUC0-2h
property name: AUC(0-t) (ng·h/mL)
Lab book: enter the figure in ng·h/mL, no units written.

compound="CCC1CC2CC3c4[nH]c5ccc(O)cc5c4CCN(C2)C13 (centres unmarked) [Noribogaine, 12-hydroxyibogamine]" property_name=AUC(0-t) numeric_result=519

Alright, here's another compound for you.
Query: Fill blank: measured AUC(0-t) of the compound CCC1CC2CC3c4[nH]c5ccc(OC6OC(C(=O)O)C(O)C(O)C6O)cc5c4CCN(C2)C13 (centres unmarked) [Noribogaine glucuronide, noribogaine glucuronide] is ____.
Reply: 236

* * *

# maps each entry to its Cmax
assay: Plasma pharmacokinetics over 2 h after oral ibogaine in wild-type, Oatp1a/1b-/-, Oatp1a/1b-/-;1B1tg and Oatp1a/1b-/-;1B3tg mice; assay type: in vivo; conditions: female, wild-type, mouse, plasma, po, 10 mg/kg

Query: Quick one: Cmax for CCC1CC2CC3c4[nH]c5ccc(OC6OC(C(=O)O)C(O)C(O)C6O)cc5c4CCN(C2)C13 (centres unmarked) [Noribogaine glucuronide, noribogaine glucuronide] ?
Reply: 125 ng/mL

Query: If you can, please state the reported Cmax value of CCC1CC2CC3c4[nH]c5ccc(O)cc5c4CCN(C2)C13 (centres unmarked) [Noribogaine, 12-hydroxyibogamine] .
Reply: 209 ng/mL

* * *

assay: Plasma pharmacokinetics over 2 h after oral ibogaine in wild-type, Oatp1a/1b-/-, Oatp1a/1b-/-;1B1tg and Oatp1a/1b-/-;1B3tg mice; assay type: in vivo; settings: female, Oatp1a/1b-/-;1B1tg, mouse, plasma, po, 10 mg/kg; read-out: AUC0-2h
property name: AUC(0-t) (ng·h/mL)
Value expressed in ng·h/mL; do not type the unit.

compound="CCC1CC2CC3c4[nH]c5ccc(OC6OC(C(=O)O)C(O)C(O)C6O)cc5c4CCN(C2)C13 (centres unmarked) [Noribogaine glucuronide, noribogaine glucuronide]" numeric_result=294

Shift focus to the following entry.
Query: Value lookup for AUC(0-t); key = CCC1CC2CC3c4[nH]c5ccc(O)cc5c4CCN(C2)C13 (centres unmarked) [Noribogaine, 12-hydroxyibogamine]
Reply: 578

* * *

assay: Plasma pharmacokinetics over 2 h after oral ibogaine in wild-type, Abcg2-/- and Abcb1a/1b;Abcg2-/- mice; type: in vivo; settings: Abcg2-/-, mouse, plasma, po, 10 mg/kg
property name: Tmax (h)
Provide only the numeric value, understood in h.

molecule="CCC1CC2CC3c4[nH]c5ccc(OC6OC(C(=O)O)C(O)C(O)C6O)cc5c4CCN(C2)C13 (centres unmarked) [Noribogaine glucuronide, noribogaine glucuronide]" numeric_result=2

Continue with the molecule presented below.
Query: So what's the measured Tmax for this one? CCC1CC2CC3c4[nH]c5ccc(O)cc5c4CCN(C2)C13 (centres unmarked) [Noribogaine, 12-hydroxyibogamine]
Reply: 0.25

* * *

assay: Plasma pharmacokinetics over 8 h after oral ibogaine in wild-type, Cyp3a-/- and Cyp3aXAV mice; assay type: in vivo; conditions: female, wild-type, mouse, 10 mg/kg
property name: Tmax
Quote the value and follow it with the unit of measurement.

molecule="CCC1CC2CC3c4[nH]c5ccc(O)cc5c4CCN(C2)C13 (centres unmarked) [Noribogaine, 12-hydroxyibogamine]" result="30 min"

Query: Dear colleague, I am looking for the recorded Tmax of the following molecule: CCC1CC2CC3c4[nH]c5ccc(OC6OC(C(=O)O)C(O)C(O)C6O)cc5c4CCN(C2)C13 (centres unmarked) [Noribogaine glucuronide, noribogaine glucuronide]
Reply: 60 min

* * *

experiment: Tissue distribution 2 h after oral ibogaine in wild-type, Abcg2-/- and Abcb1a/1b;Abcg2-/- mice; format: in vivo; conditions: Abcb1a/1b;Abcg2-/-, mouse, brain, po, 10 mg/kg; read-out: brain-to-plasma ratio
property name: Kp at 2 h
Quick one: just the number, no unit, thanks!

Query: Which value of Kp at 2 h has been reported for CCC1CC2CC3c4[nH]c5ccc(O)cc5c4CCN(C2)C13 (stereo not shown) [Noribogaine, 12-hydroxyibogamine] in the records?
Reply: 8.3

* * *

assay: Plasma pharmacokinetics over 8 h after oral ibogaine in wild-type, Cyp3a-/- and Cyp3aXAV mice; format: in vivo; details: female, wild-type, mouse, 10 mg/kg, read-out: AUC0-8h
property name: AUC(0-t) (ng·h/mL)
Quick note: give the figure in ng·h/mL, leave out the unit.

molecule="CCC1CC2CC3c4[nH]c5ccc(OC6OC(C(=O)O)C(O)C(O)C6O)cc5c4CCN(C2)C13 (centres unmarked) [Noribogaine glucuronide, noribogaine glucuronide]" property_name=AUC(0-t) numeric_result=219

Now take the following molecule into account.
Query: Item under review: CCC1CC2CC3c4[nH]c5ccc(O)cc5c4CCN(C2)C13 (centres unmarked) [Noribogaine, 12-hydroxyibogamine] . Reported AUC(0-t)?
Reply: 655

* * *

Parameter: Tmax. Scope: all listed entries.
test: Plasma pharmacokinetics over 2 h after oral ibogaine in wild-type, Oatp1a/1b-/-, Oatp1a/1b-/-;1B1tg and Oatp1a/1b-/-;1B3tg mice; format: in vivo; conditions: female, Oatp1a/1b-/-;1B1tg, mouse, plasma, po, 10 mg/kg
Write the answer as a number in min, unit excluded.

compound="CCC1CC2CC3c4[nH]c5ccc(O)cc5c4CCN(C2)C13 (centres unmarked) [Noribogaine, 12-hydroxyibogamine]" result_unit=min numeric_result=15

Consider now this further compound.
Query: Please report the recorded Tmax for CCC1CC2CC3c4[nH]c5ccc(OC6OC(C(=O)O)C(O)C(O)C6O)cc5c4CCN(C2)C13 (centres unmarked) [Noribogaine glucuronide, noribogaine glucuronide] .
Reply: 60

* * *

The compounds listed here are annotated with their Tmax.
test: Plasma pharmacokinetics over 8 h after oral ibogaine in wild-type, Cyp3a-/- and Cyp3aXAV mice; format: in vivo; conditions: female, Cyp3aXAV, mouse, 10 mg/kg

compound="CCC1CC2CC3c4[nH]c5ccc(O)cc5c4CCN(C2)C13 (centres unmarked) [Noribogaine, 12-hydroxyibogamine]" result="30 min"

Query compound follows.
Query: Can you share its Tmax? I mean this compound: CCC1CC2CC3c4[nH]c5ccc(OC6OC(C(=O)O)C(O)C(O)C6O)cc5c4CCN(C2)C13 (centres unmarked) [Noribogaine glucuronide, noribogaine glucuronide]
Reply: 60 min

* * *

assay: Plasma pharmacokinetics over 2 h after oral ibogaine in wild-type, Abcg2-/- and Abcb1a/1b;Abcg2-/- mice; type: in vivo; conditions: female, wild-type, mouse, plasma, po, 10 mg/kg
Quick reference for Tmax among some compounds
// note: answer is a bare numeric in h

compound="CCC1CC2CC3c4[nH]c5ccc(O)cc5c4CCN(C2)C13 (centres unmarked) [Noribogaine, 12-hydroxyibogamine]" result_unit=h numeric_result=0.5

Could you now look at the following compound, please?
Query: Recorded Tmax for CCC1CC2CC3c4[nH]c5ccc(OC6OC(C(=O)O)C(O)C(O)C6O)cc5c4CCN(C2)C13 (centres unmarked) [Noribogaine glucuronide, noribogaine glucuronide] , please?
Reply: 2

* * *

assay: Plasma pharmacokinetics over 2 h after oral ibogaine in wild-type, Abcg2-/- and Abcb1a/1b;Abcg2-/- mice; assay type: in vivo; details: female, wild-type, mouse, plasma, po, 10 mg/kg
Cmax values for the compounds below.
Express your answer in ng/mL, writing the number without its unit.

compound="CCC1CC2CC3c4[nH]c5ccc(O)cc5c4CCN(C2)C13 (centres unmarked) [Noribogaine, 12-hydroxyibogamine]" result_unit=ng/mL numeric_result=208

Query: Please look up its Cmax: CCC1CC2CC3c4[nH]c5ccc(OC6OC(C(=O)O)C(O)C(O)C6O)cc5c4CCN(C2)C13 (centres unmarked) [Noribogaine glucuronide, noribogaine glucuronide]
Reply: 125

* * *

assay: Plasma pharmacokinetics over 8 h after oral ibogaine in wild-type, Cyp3a-/- and Cyp3aXAV mice; type: in vivo; conditions: female, Cyp3aXAV, mouse, 10 mg/kg
property name: Cmax (ng/mL)
Unit ng/mL implied. Number only.

compound="CCC1CC2CC3c4[nH]c5ccc(OC6OC(C(=O)O)C(O)C(O)C6O)cc5c4CCN(C2)C13 (centres unmarked) [Noribogaine glucuronide, noribogaine glucuronide]" result_unit=ng/mL numeric_result=123

Query compound follows.
Query: Recorded Cmax of CCC1CC2CC3c4[nH]c5ccc(O)cc5c4CCN(C2)C13 (centres unmarked) [Noribogaine, 12-hydroxyibogamine] , please.
Reply: 328
